# System: U2OS
# EXPERIMENTAL PROTOCOL: Multiplex assay against U2OS
# Assay type: toxicity, cell-based
# EXPERIMENTAL SETUP: human, 48 h, 1 µM, compound concentration 1 uM, replicate 2
Item-by-item account of Total Cell Count
Give the value as a plain number.

Worked cases, answers included:
1. Cl.Oc1ccc2c3c1O[C@H]1c4[nH]c5c(c4C[C@@]4(O)[C@@H](C2)N(CC2CC2)CC[C@]314)C[C@@]1(O)[C@H]2Cc3ccc(O)c4c3[C@@]1(CCN2CC1CC1)[C@H]5O4	96
2. Cl.O=c1c2cccn2c2ccccc2n1CCCN1CCC(c2ccc(Cl)cc2)CC1	131
3. O=C(Nc1ccc(-c2ccnc(Nc3ccc(N4CCOCC4)cc3)n2)cc1)[C@@H]1CCCN1	61
4. C=C1/C(=C\C=C2/CCC[C@]3(C)[C@@H]([C@H](C)/C=C/[C@H](C)C(C)C)CC[C@@H]23)C[C@@H](O)C[C@@H]1O [DOXERCALCIFEROL]	235
5. CN1CCC(=C2c3ccccc3CC(=O)c3sccc32)CC1.O=C(O)/C=C/C(=O)O [KETOTIFEN FUMARATE]	63
6. CN(C)C(=O)C(CCN1CCC(O)(c2ccc(Cl)cc2)CC1)(c1ccccc1)c1ccccc1.Cl [LOPERAMIDE HYDROCHLORIDE]	118

Turning now to a further record.
Noted for CCOC(=O)c1c(C)[nH]c2ccc3c(c12)CN1CCc2cc(OC)ccc2C1O3 (configuration not stated) : its Total Cell Count reads 67

----------
Item-by-item account of Population Mitochondria Different-Phenotype (%)
# System: Fibroblast
# EXPERIMENTAL PROTOCOL: Multiplex assay against human fibroblast
# Format: toxicity, cell-based
# EXPERIMENTAL SETUP: 12 h, 1 µM, compound concentration 1 uM, replicate 2
The response must be a number in % with no trailing unit.

1. CCN1CCN(Cc2ccc(Nc3ncc(F)c(-c4cc(F)c5nc(C)n(C(C)C)c5c4)n3)nc2)CC1.CS(=O)(=O)O	91

Noted for Cl.O=c1c2cccn2c2ccccc2n1CCCN1CCC(c2ccc(Cl)cc2)CC1 : its Population Mitochondria Different-Phenotype (%) reads 56

Noted for CN1C2CCC1CC(OC(c1ccc(F)cc1)c1ccc(F)cc1)C2.Cl (stereo not drawn) : its Population Mitochondria Different-Phenotype (%) reads 4

Noted for COc1cc2ncnc(Nc3ccc(F)c(Cl)c3)c2cc1NC(=O)/C=C/CN1CCCCC1 [DACOMITINIB ANHYDROUS] : its Population Mitochondria Different-Phenotype (%) reads 25

Noted for CCOc1cc(C(=O)N2CCC(N3CCN(C)CC3)CC2)ccc1Nc1ncc2c(n1)N(C1CCCC1)c1ccccc1C(=O)N2C : its Population Mitochondria Different-Phenotype (%) reads 76

Noted for O=C(Cc1ccc(-c2ccc(OCCN3CCOCC3)cc2)cn1)NCc1ccccc1 [TIRBANIBULIN] : its Population Mitochondria Different-Phenotype (%) reads 21

Noted for CCn1cc(-c2ccnc3[nH]c(-c4cccc(CN(C)C)c4)cc23)c(-c2ccc(NC(=O)N(C)C)cc2)n1 [GSK-1070916] : its Population Mitochondria Different-Phenotype (%) reads 6

Noted for Cl.O=C(c1ccc(Nc2nccc(-c3cc4ccccc4s3)n2)cc1)N1CCC(N2CCCC2)CC1 : its Population Mitochondria Different-Phenotype (%) reads 9
